Target: T1, 4H458-AA
T1 chain: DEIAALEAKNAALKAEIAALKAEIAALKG
Assay: two-hybrid library CCmax;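 also: natural log of median RNA to DNA barcode read ratio; higher means stronger binding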
Conditions: mean of both orientations
PARAMETER: interaction score

A: DKNAALKAEIAALEAEIAALEAKIAALKG [4H3590-AA]
B: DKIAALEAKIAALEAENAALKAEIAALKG [4H2330-AA]
C: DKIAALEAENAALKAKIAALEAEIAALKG [4H2274-AA]
D: DKNAALEAKIAALEAKNAALEAKIAALEG [4H3381-AA]
Sort the items above on interaction score, descending. As an answer, provide the labels arranged in the order called for.
A, C, B, D
(A: 1.13, C: 0.0218, B: -1.07, D: -1.53)

Provenance of the data: paper PMC10397247
